Where do the numbers come from? From PubChem BioAssay AID1963849.

Test system: 299254-011-R-J1-PDC complex spheroid viability
Experiment: Anticancer human tumor 299254-011-R-J1-PDC patient-derived melanoma cell line growth inhibition [POLQ]
Details: curve of first compound; second compound 1 µM
Protocol: Multicellular complex tumor spheroid response to Polymerase (POL) inhibitors (novobiocin, ART-558, RP6685) in combination with a variety of drugs and investigational agents in selected tumor cell lines The POL inhibitors (novobiocin, ART-558, and RP6685) were evaluated both individually and in combination with standard of care and investigational anticancer small molecules within a complex spheroid model of solid tumors. . […]
pIC50: −log10 of the molar value.
measuredMetric: pIC50

* Nc1ccn(C2OC(CO)C(O)C2(F)F)c(=O)n1 (stereo unspecified) + Cc1cccc(N(C)C(=O)C2C(O)CCN2c2nc(C)cc(C(F)(F)F)c2C#N)c1 | 7.10
* COc1cccc2c1C(=O)c1c(O)c3c(c(O)c1C2=O)CC(O)(C(=O)CO)CC3OC1CC(N)C(O)C(C)O1 (stereo unspecified) + Nc1ccc(C#CCN(C(=O)Cc2ncc(C(F)(F)F)cc2C(F)(F)F)c2ccc(F)cc2)nn1 | 6.08
* O=C(Nc1ccc(O)c(NS(=O)(=O)c2ccc(F)cc2)c1)c1ccc(-c2ccccc2)cc1 + Nc1ccc(C#CCN(C(=O)Cc2ncc(C(F)(F)F)cc2C(F)(F)F)c2ccc(F)cc2)nn1 | 5.03
* Nc1ccn(C2OC(CO)C(O)C2(F)F)c(=O)n1 (stereo unspecified) + COC1C(OC(N)=O)C(O)C(Oc2ccc3c(O)c(NC(=O)c4ccc(O)c(CC=C(C)C)c4)c(=O)oc3c2C)OC1(C)C | 7.10
* CC1COCCN1c1cc(C2(S(C)(=N)=O)CC2)nc(-c2ccnc3[nH]ccc23)n1 (stereo unspecified) + Nc1ccc(C#CCN(C(=O)Cc2ncc(C(F)(F)F)cc2C(F)(F)F)c2ccc(F)cc2)nn1 | 5.25

====

test system: 299254-011-R-J1-PDC complex spheroid viability; assay: Anticancer human tumor 299254-011-R-J1-PDC cell line growth inhibition [POLQ]; conditions: second compound 10 µM; first compound 10 µM; active = viability on the fitted dose curve at most 10% of control; inactive = the rest;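 further: spheroids exposed to drugs for one week before measurement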
Labels: true (1) = active, false (0) = inactive

* COc1cccc2c1C(=O)c1c(O)c3c(c(O)c1C2=O)CC(O)(C(=O)CO)CC3OC1CC(N)C(O)C(C)O1 (stereo unspecified) + Nc1ccc(C#CCN(C(=O)Cc2ncc(C(F)(F)F)cc2C(F)(F)F)c2ccc(F)cc2)nn1 | true (1)
* O=c1[nH]cc(F)c(=O)[nH]1 + COC1C(OC(N)=O)C(O)C(Oc2ccc3c(O)c(NC(=O)c4ccc(O)c(CC=C(C)C)c4)c(=O)oc3c2C)OC1(C)C | false (0)
* COc1cc2cc(C(=O)CCC(=O)O)sc2cc1OC + Cc1cccc(N(C)C(=O)C2C(O)CCN2c2nc(C)cc(C(F)(F)F)c2C#N)c1 | false (0)
* CC1COCCN1c1cc(-c2ccnn2C)c2ccnc(-c3ccn[nH]3)c2n1 (stereo unspecified) + Cc1cccc(N(C)C(=O)C2C(O)CCN2c2nc(C)cc(C(F)(F)F)c2C#N)c1 | false (0)
* CC(C)n1c(=O)n(C)c2cnc3cc(F)c(-c4ccc(OCCCN5CCCCC5)nc4)cc3c21 + Nc1ccc(C#CCN(C(=O)Cc2ncc(C(F)(F)F)cc2C(F)(F)F)c2ccc(F)cc2)nn1 | false (0)
* CC1COCCN1c1cc(C2(S(C)(=N)=O)CC2)nc(-c2ccnc3[nH]ccc23)n1 (stereo unspecified) + Nc1ccc(C#CCN(C(=O)Cc2ncc(C(F)(F)F)cc2C(F)(F)F)c2ccc(F)cc2)nn1 | false (0)
* C#Cc1c(F)ccc2cc(O)cc(-c3ncc4c(N5CC6CCC(C5)N6)nc(OCC56CCCN5CC(F)C6)nc4c3F)c12 (stereo unspecified) + Nc1ccc(C#CCN(C(=O)Cc2ncc(C(F)(F)F)cc2C(F)(F)F)c2ccc(F)cc2)nn1 | false (0)
* CCc1cc2c(N3CCc4c(cc(Cn5ccnc5)cc4-c4cn(C)nc4C(F)(F)F)C3=O)ccnc2c(OC)n1 + COC1C(OC(N)=O)C(O)C(Oc2ccc3c(O)c(NC(=O)c4ccc(O)c(CC=C(C)C)c4)c(=O)oc3c2C)OC1(C)C | false (0)
* COc1ccc([C@@H](O)c2cc(-c3ncnc4cc(N5CCOCC5)ccc34)c(F)cc2Cl)nn1 + Nc1ccc(C#CCN(C(=O)Cc2ncc(C(F)(F)F)cc2C(F)(F)F)c2ccc(F)cc2)nn1 | false (0)
* CC1COCCN1c1cc(C2(O)CC3CCC(C2)O3)c2cnn(-c3ccn[nH]3)c2n1 (stereo unspecified) + Cc1cccc(N(C)C(=O)C2C(O)CCN2c2nc(C)cc(C(F)(F)F)c2C#N)c1 | false (0)
* CNCc1ccc(-c2[nH]c3cc(F)cc4c3c2CCNC4=O)cc1 + Cc1cccc(N(C)C(=O)C2C(O)CCN2c2nc(C)cc(C(F)(F)F)c2C#N)c1 | false (0)

====

Reported values of viability, T/C for individual entries
system: 299254-011-R-J1-PDC complex spheroid viability; test: Anticancer human tumor 299254-011-R-J1-PDC cell line growth inhibition [POLQ]; details: second compound 0.1 µM; first compound 0.0316 µM; stronger effect = lower value;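 further: spheroids exposed to drugs for one week before measurement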;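 on viability, T/C: percent viability relative to DMSO vehicle control taken as 100%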
measuredMetric: viability, T/C (%)

• Nc1ccn(C2OC(CO)C(O)C2(F)F)c(=O)n1 (stereo not given) + Nc1ccc(C#CCN(C(=O)Cc2ncc(C(F)(F)F)cc2C(F)(F)F)c2ccc(F)cc2)nn1 = 60.7
• C=CCn1c(=O)c2cnc(Nc3ccc(N4CCN(C)CC4)cc3)nc2n1-c1cccc(C(C)(C)O)n1 + COC1C(OC(N)=O)C(O)C(Oc2ccc3c(O)c(NC(=O)c4ccc(O)c(CC=C(C)C)c4)c(=O)oc3c2C)OC1(C)C = 127
• Cn1ncnc1[C@H]1c2n[nH]c(=O)c3cc(F)cc(c23)N[C@@H]1c1ccc(F)cc1 + COC1C(OC(N)=O)C(O)C(Oc2ccc3c(O)c(NC(=O)c4ccc(O)c(CC=C(C)C)c4)c(=O)oc3c2C)OC1(C)C = 106
• CC[C@@]1(O)C(=O)OCc2c1cc1n(c2=O)Cc2cc3c(CN(C)C)c(O)ccc3nc2-1 + COC1C(OC(N)=O)C(O)C(Oc2ccc3c(O)c(NC(=O)c4ccc(O)c(CC=C(C)C)c4)c(=O)oc3c2C)OC1(C)C = 114
• CC1COCCN1c1cc(C2(S(C)(=N)=O)CC2)nc(-c2ccnc3[nH]ccc23)n1 (stereo not given) + COC1C(OC(N)=O)C(O)C(Oc2ccc3c(O)c(NC(=O)c4ccc(O)c(CC=C(C)C)c4)c(=O)oc3c2C)OC1(C)C = 110

====

Reported values of viability, T/C for individual entries
system: 299254-011-R-J1-PDC complex spheroid viability; assay: Anticancer human tumor 299254-011-R-J1-PDC cell line growth inhibition [POLQ]; details: second compound 1 µM; first compound 0.1 µM; stronger effect = lower value;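 further: spheroids exposed to drugs for one week before measurement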;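 on viability, T/C: percent viability relative to DMSO vehicle control taken as 100%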
measuredMetric: viability, T/C

• CCCS(=O)(=O)Nc1ccc(F)c(C(=O)c2c[nH]c3ncc(-c4ccc(Cl)cc4)cc23)c1F + COC1C(OC(N)=O)C(O)C(Oc2ccc3c(O)c(NC(=O)c4ccc(O)c(CC=C(C)C)c4)c(=O)oc3c2C)OC1(C)C = 98.4%
• C=CCn1c(=O)c2cnc(Nc3ccc(N4CCN(C)CC4)cc3)nc2n1-c1cccc(C(C)(C)O)n1 + Nc1ccc(C#CCN(C(=O)Cc2ncc(C(F)(F)F)cc2C(F)(F)F)c2ccc(F)cc2)nn1 = 97.2%
• COc1ccc([C@@H](O)c2cc(-c3ncnc4cc(N5CCOCC5)ccc34)c(F)cc2Cl)nn1 + COC1C(OC(N)=O)C(O)C(Oc2ccc3c(O)c(NC(=O)c4ccc(O)c(CC=C(C)C)c4)c(=O)oc3c2C)OC1(C)C = 107%
• COc1cccc2c1C(=O)c1c(O)c3c(c(O)c1C2=O)CC(O)(C(=O)CO)CC3OC1CC(N)C(O)C(C)O1 (stereo not given) + Nc1ccc(C#CCN(C(=O)Cc2ncc(C(F)(F)F)cc2C(F)(F)F)c2ccc(F)cc2)nn1 = 72.2%
• Cn1ncnc1[C@H]1c2n[nH]c(=O)c3cc(F)cc(c23)N[C@@H]1c1ccc(F)cc1 + COC1C(OC(N)=O)C(O)C(Oc2ccc3c(O)c(NC(=O)c4ccc(O)c(CC=C(C)C)c4)c(=O)oc3c2C)OC1(C)C = 97.4%

====

tested on: 299254-011-R-J1-PDC complex spheroid viability; experiment: Anticancer human tumor 299254-011-R-J1-PDC cell line growth inhibition [POLQ]; conditions: curve of first compound; second compound 3.16 µM;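 further: spheroids exposed to drugs for one week before measurement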
Reported values of IC50 for individual entries
measuredMetric: IC50 (µM)

* CC1COCCN1c1cc(C2(S(C)(=N)=O)CC2)nc(-c2ccnc3[nH]ccc23)n1 (stereo not given) + Cc1cccc(N(C)C(=O)C2C(O)CCN2c2nc(C)cc(C(F)(F)F)c2C#N)c1 | 4.22
* O=C(Nc1ccc(O)c(NS(=O)(=O)c2ccc(F)cc2)c1)c1ccc(-c2ccccc2)cc1 + Cc1cccc(N(C)C(=O)C2C(O)CCN2c2nc(C)cc(C(F)(F)F)c2C#N)c1 | 9.75
